Tested on: Fer (mouse)
Experiment: phosphorylation enrichment, bacterial display (enrichment ratio); higher = better substrate or ligand; peptides without Tyr show the background;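 further: 11-residue human phosphosite peptides and single-mutation variants displayed on the E. coli surface, counted by deep sequencing, each peptide's frequency after selection divided by its frequency in the unselected input library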;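 further: frequency after pTyr selection over input frequency; kinase dosed for 20-30% of maximal phosphorylation in three min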
READOUT_KIND: phosphorylation enrichment
The response must contain the number and no unit.

input: State, for Fer (mouse), measured phosphorylation enrichment of the sequence listed here: MRNDLYQTPLH [NFKB1_Y582]
output: 4.12

input: Quote phosphorylation enrichment with test system Fer (mouse) for TYGQVYKGPHV [TNIK_Y40_R43P]
output: 0.398

input: Provide the reported phosphorylation enrichment (system: Fer (mouse)) for ETSHNYHKFDS [MATR3_Y243]
output: 0.372

input: Provide phosphorylation enrichment, system Fer (mouse), entry TGGLEYIVPLM [CLCN4_Y548]
output: 0.379

input: Provide phosphorylation enrichment, recorded with Fer (mouse), of GVLKEYGEKVL [CPS1_Y529_V531E]
output: 0.405

input: Give the observed phosphorylation enrichment of LRYDSYSSYCN [SLC20A2_Y433] for Fer (mouse).
output: 0.577

input: # assay system Fer (mouse): give phosphorylation enrichment of LRYEVYGGENE [STOX1_Y610]
output: 0.623

input: Answer with phosphorylation enrichment of VASIFYTLVIP [OR8K3_Y277] measured for Fer (mouse).
output: 2.79

input: Please look at ECKLLYSRKEG [PTPN11_Y263] and tell me its recorded phosphorylation enrichment on Fer (mouse).
output: 0.465

input: Provide Fer (mouse) phosphorylation enrichment reading for KRTFEYEAEKN [DENND2B_Y396_D399E] .
output: 0.436

input: # lookup: Fer (mouse) phosphorylation enrichment, key = YIRKDYEACKA [BBS4_Y48]
output: 0.403

input: Please tell me the measured phosphorylation enrichment for ARAFIYAIIPA [ACKtide_2014] ; system: Fer (mouse).
output: 0.81

input: For Fer (mouse), give phosphorylation enrichment of the listed sequence: AKAEICEMRPL [COX10_Y97_Y97C]
output: 0.602

input: Using Fer (mouse) as the test system, report measured phosphorylation enrichment of GSIQQYTFKQE [PRG4_Y1271_I1272T_YF] .
output: 0.427

----------
Hi there, I'd appreciate the recorded phosphorylation enrichment for every entry that follows.
Biological target: FGFR1 (UniProt P11362)
Sequence (P11362 whole entry, looked up): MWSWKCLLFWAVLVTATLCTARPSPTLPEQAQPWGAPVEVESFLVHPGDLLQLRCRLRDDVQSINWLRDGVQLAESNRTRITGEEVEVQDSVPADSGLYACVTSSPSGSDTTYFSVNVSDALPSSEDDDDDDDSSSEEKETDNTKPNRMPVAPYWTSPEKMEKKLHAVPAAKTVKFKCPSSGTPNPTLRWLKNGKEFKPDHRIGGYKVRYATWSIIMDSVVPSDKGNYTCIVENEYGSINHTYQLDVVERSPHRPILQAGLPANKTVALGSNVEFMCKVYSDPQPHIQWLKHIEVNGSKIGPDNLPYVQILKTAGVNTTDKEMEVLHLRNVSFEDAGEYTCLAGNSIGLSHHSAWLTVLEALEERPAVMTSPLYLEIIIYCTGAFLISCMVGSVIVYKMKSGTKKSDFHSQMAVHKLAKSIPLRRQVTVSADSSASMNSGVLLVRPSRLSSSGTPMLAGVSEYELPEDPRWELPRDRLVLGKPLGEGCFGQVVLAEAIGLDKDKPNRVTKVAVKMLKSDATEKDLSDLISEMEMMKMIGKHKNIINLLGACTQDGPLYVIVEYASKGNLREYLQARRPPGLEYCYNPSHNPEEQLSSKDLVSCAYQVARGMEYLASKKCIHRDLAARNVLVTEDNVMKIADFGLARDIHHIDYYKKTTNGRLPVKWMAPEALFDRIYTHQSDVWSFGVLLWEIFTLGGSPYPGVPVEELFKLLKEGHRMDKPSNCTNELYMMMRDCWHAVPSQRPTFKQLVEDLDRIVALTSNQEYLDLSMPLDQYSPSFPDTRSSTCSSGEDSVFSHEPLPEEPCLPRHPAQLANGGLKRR
Assay: phosphorylation enrichment, bacterial display (enrichment ratio); higher = better substrate or ligand; peptides without Tyr show the background
Please give only the number in your answer, with no unit.

input: Identify phosphorylation enrichment associated with the sequence QADIIYVNTQL [MERTK_Y872_V870I]
output: 0.712

input: Hello, please tell me recorded phosphorylation enrichment for this one: HMEAVYIDIAD [PITPNA_Y140_V136M]
output: 13.6

input: Check the records and state phosphorylation enrichment for WQQQSYLDYGI [CTNNB1_Y30_S33Y]
output: 0.91

input: Give me measured phosphorylation enrichment, please, for this sequence: YPPDGYSRHYE [CTNND1_Y213]
output: 0.451

input: For the sequence GSIQQYTFKQE [PRG4_Y1271_I1272T_YF] , give its measured phosphorylation enrichment value.
output: 0.369

input: Look up phosphorylation enrichment of FSEVRYMKEPY [HIPK4_Y170_V171M] and report it.
output: 0.485

input: Please indicate phosphorylation enrichment recorded for MKDLTYSSLCF [ALOX5_Y446_A447S]
output: 0.997

input: Provide phosphorylation enrichment value for the following sequence: ETLLFYGCRRS [POR_Y564_YF]
output: 0.621

input: Provide measured phosphorylation enrichment value, entry: VISNAYVDLAP [HSD17B4_Y602]
output: 0.89

input: Given the sequence SHGKRYRVPSD [HHIPL2_Y395] , write its reported phosphorylation enrichment.
output: 0.301

input: Report measured phosphorylation enrichment; entry is KPIETYFSKNY [PLP1_Y50_L46P]
output: 0.466

input: Identify phosphorylation enrichment associated with the sequence DLEKTYNTYRS [B4GALNT2_Y538_A533D]
output: 0.554

input: Please give the documented phosphorylation enrichment of KGIQLYDTPYE [SHB_Y297]
output: 0.564

input: Supply measured phosphorylation enrichment of PPNSPYIGSSP [KCNT1_Y740] in your reply.
output: 0.537

input: In one line, give reported phosphorylation enrichment of the entry SEELHYFVQNH [UQCRC2_Y207] .
output: 1.12

input: Fill in phosphorylation enrichment for record EGNEQYEGYCV [GRIA3_Y451_R450Q]
output: 0.557

input: Indicate its recorded phosphorylation enrichment; the sequence in question is NIISFYLSRDP [CTSD_Y232_F229I]
output: 0.516

input: # return recorded phosphorylation enrichment for entry KAALSYVSEIG [BPIFB2_Y36]
output: 0.456

input: Complete the entry with phosphorylation enrichment for FVKEPYIQSRF [HIPK4_Y175_YF]
output: 0.375

input: Give reported phosphorylation enrichment value for ALIKAYDKAVA [SMN1_Y43]
output: 0.444

input: Tell us which phosphorylation enrichment value is on record for MIAIRYSHSRR [ACOXL_Y260_T255M]
output: 0.377

input: Please give measured phosphorylation enrichment of the following entry: SDLTDYLMKIL [ACTA1_Y190_R185S]
output: 0.532

input: Report phosphorylation enrichment, nothing else, for this sequence: FFCKFYNKSED [RYR1_Y4864_R4861C]
output: 0.536

input: Read off the recorded phosphorylation enrichment for TAIFIYIRPKA [OR10C1_Y258_L255I]
output: 0.518

input: Indicate its recorded phosphorylation enrichment; the sequence in question is PPNSPYMGSSP [KCNT1_Y740_I741M]
output: 0.632

input: Assign phosphorylation enrichment to the following record: GRTNICKNKKD [SLC26A3_Y520_Y520C]
output: 0.471

input: Give the measured phosphorylation enrichment for GLSAPYVKIHL [SYT2_Y309_D307A]
output: 0.436

input: State its phosphorylation enrichment: DPLLTYRFPPN [LMNA_Y481_K486N]
output: 0.766

input: Report phosphorylation enrichment for RVQQIYSDSDL [MIB1_Y376]
output: 0.574
